The reported numbers originate from patent US10167262B2.

pest or weed control at 250 g/ha values for the compounds below.
Tested on: fall panicum (Panicum dichotomiflorum)
Assay: Test E pre-/postemergence greenhouse test, plant response rating 0-100
Type: in vivo
Details: Panicum dichotomiflorum, post-emergence; Postemergence, 250 g ai/ha; scale 0 to 100
Text: […] Treated plants and controls were maintained in a greenhouse for 14 to 21 days, after which time all species were compared to controls and visually evaluated. […]
// note: answer is a bare numeric in %

# annotated cases, reported pest or weed control at 250 g/ha shown
COCC(=O)n1cc(C(=O)c2ccccc2)c(-c2cc(Cl)cc(Cl)c2)n1 | 30
O=C(c1ccccc1)c1cn(CO)nc1-c1cc(Cl)cc(Cl)c1 | 0
Cn1cc(C(=O)c2ccccc2)c(-c2cc(Cl)cc(Cl)c2)n1 | 0

Consider the additional compound presented here.
Provide value of pest or weed control at 250 g/ha for this record tested with fall panicum (Panicum dichotomiflorum): CCCn1cc(C(=O)c2ccccc2)c(-c2cc(Cl)cc(Cl)c2)n1
0
